test: yeast display, Sf9 membrane polyspecificity reagent, FACS + sequencing; frameworks hold sequencing errors
readout_name: polyreactivity (PSR sort gate)

QVQLVDSGGGLVQAGGSLRLRCADSGSIFRDNAMGWYRQAPGKERELVADINYRDGDTFYADSVKGRFTISRDNAKNTVYLLMNSLKPEDNAVYYCAAEWDYPWWRIVAVYGYEYWGQGTQVTVSS; low polyreactivity
QDQLVESGGGLVQAGGSLRLSCAASGSILIHNAMGWSRQAPGKERELVAAITSGGSTNYADSVKGRFTISRDNAKNTVYLQMNSLKPEDTAVYYCATAVGRVLVGYDYWGQGTQVTLSS; low polyreactivity

* * *

test: yeast display, Sf9 membrane polyspecificity reagent, FACS + sequencing; frameworks hold sequencing errors
readout_name: polyreactivity (PSR sort gate)

QVQLVESGGGLVQAGGSLRLTCAASGRIFSYYDMGWYRKAPGKERELVARISYSGDSTYYADSVKGRFTISRDNAKNTVYLQMNSLKPEDTAVYYCAAEVDSGYSEYYWGQGTQVTVSS; low polyreactivity
QVQLVESGGGLVQAGGSLRLSCAASGSIFYHYAMGLYRQAPGKERELVAAISGSGGSTYYADSVKGRFTISRDNAKNTVYLQMNSLKPEDTAVYYCAADTSRYHYTRYFFDSDYWGQGTQVTVSS; low polyreactivity
QVQLVESGGGLVQAGGSLRLSCAASGRIFSVYAMGWYRQAPGKERELVAAITNGGRTNYADSVKGRFTISRDNAKNTVYLQMNSLKPEDTAVYYCATDPVKSGYQRYYYWGQGTQVTVSS; low polyreactivity

* * *

test: yeast display, Sf9 membrane polyspecificity reagent, FACS + sequencing; frameworks hold sequencing errors
readout_name: polyreactivity (PSR sort gate)

The examples below pair each entry with its known result.
QVQLVESGGGLVQAGGSLRLSCAASGRIFQDYAMGWYRQPPGKERELVAAISSSGVRTYYADSVKGRFTISRDNAKNTVYVQMNSLKPEDTAVYYCATGYIFRYRQSAYVYWGQGTQVTVSS; high polyreactivity
QVQLVESGGGLVQAGGSLRLSCAASGSIFTKYAMGWYIQAPGKEREFVAAITLSGGSTYYADSVKGRFTISRDNAKNTVYLQMNSLKPEDTAVYYCNAAYTYVTAWYYYWGQGTQVTVSS; high polyreactivity
QVQLVESGGGLVQAGGSLRLSCAAFGFTFNSYAMGWNRQAPGKERELVAGITSSGGGTYYADSVKGRFTISRDNAKNTVYLQMNSLKPEDTAVYYCNTYSYLFSRYGFWGQGTQVTVSS; high polyreactivity
QVQLVESGGGLVQAGGSLRLSCDASGFTFYRYAMGWYRQAPGKERELVAAISSSGSSTYYADSVKGRFTISRDNAKNTVYLQMNSLKPEDTAVYYCAKRLGGSRPYYYWGQGTQVTVSS; high polyreactivity
QVQLVESGGGLVQAGGSLRLSCAASGITFTRNVMGWYRQAPGKERELVAAISGSGGSTYYADSVKGRFTISRDNAKNTFYLQMNSLKPEDTAVYYCAARSRGGRRYDYWGQGTQVTVSS; high polyreactivity

Look up polyreactivity (PSR sort gate) for the entries below, preserving their order.
1. QDQLVESGGGLVQAGGSLRLSCAASGLIFSYYAMGWYRQAPGKERELVAAIDWISGSKYYADSVKGLFTISRDNAKNTVYLQMNSLKPEDTAVYYCAAYGSFWYARFGYCGQGTQVTVSS
2. QVQLVESGGRLVQAGGSLRLSCAASGYIFERNAMGWYRPAPGKERELVAAITDDGDDTYYADSVKGRFTISRDNEKNTVYLQLYSLKPEDTAVYYCAKDLYYGDYYYWGQGTQVTVSS
3. QVQLVESGGGLVQAGGSLRLSCAASGFIFRDNAMGWYRQAPGKERELVAAISERGGRTYYADSVKGRFTISRDNAKNTVYLQMNSLKPEDTAVYYCAAKTIYDTRGIRHYYWGQGTQVTVSS
4. QVQLVESGGGLVQAGGSLLLSCAASGFTFLWYDMGWYRQSPGKERELVAAIDASDGSTYYADSVKGRFTISRDNAKNTVYLQMNSLKPEDTAVYYCAVAAGYFGKWTYYYWGQGTQVTVSS
5. QVQLVESGVGLVQAGGSLRLIWAASGSTFVKNVMGWYRQAPGKERELVAGITRGGSTYYADSVKGRFTISRDNAKKTVYLQMNSLKPEDTAVYYCAKRYAWDRDYWGQGTQVTVSS
6. QVQLEESGGGLVQAGGSLRLSCAASGSTFDVYAMGWYRQAPGKERELVAAISRSGGSTYYADSVKGRFTISRDTAKTTVYLQMNSLQPEDTAVYYCNARLARWGSYEYNYWGQGTQVTVSS
7. QVQLVESGGGLVQAGGSLRLSCAASGFTFYTNAMGWYRPAPWKERELVAAIYARTGRTYYADSVKGRFTISRDNAKNTVFLQMNSLKPEDTAVYYCAKDRQSSSTDYGYWGQGTQVTVSS

Result:
["low polyreactivity", "low polyreactivity", "high polyreactivity", "high polyreactivity", "high polyreactivity", "low polyreactivity", "high polyreactivity"]

Source of measurements: the nanobody polyreactivity screen of Harvey et al. (2022)
